All values here come from patent US11814435B2.

# target: T1, hBCMA (human BCMA) (Homo sapiens, UniProt Q02223)
# T1 sequence (Q02223 1-184): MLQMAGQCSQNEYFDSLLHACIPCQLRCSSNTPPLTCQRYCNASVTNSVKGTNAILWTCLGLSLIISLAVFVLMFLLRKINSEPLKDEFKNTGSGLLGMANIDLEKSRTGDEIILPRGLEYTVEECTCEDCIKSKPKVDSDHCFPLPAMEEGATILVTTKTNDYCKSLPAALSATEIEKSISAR
# testDetails: Kinetics and affinity of hBCMA/human IgG interactions by SPR (Bio-Rad Proteon XPR36)
# Type: binding
# experimentalConditions: human BCMA, 37° C.
This section presents molecules with their documented Kd values.
Write the answer as a number in pM, unit excluded.

A selection of reference data follows.
| molecule | experimentalResult |
| --- | --- |
| A02_Rd4_0.6 nM_C06: anti-BCMA antibody (antibody, V domains shown) VH: EVQLLESGGGLVQPGGSLRLSCAASGFTFSSYAMNWVRQAPGKGLEWVSAISDSGGSAWYADSVKGRFTISRDNSKNTLYLQMNSLRAEDTAVYYCARYWPMSLWGQGTLVTVSS VL: EIVLTQSPGTLSLSPGERATLSCRASQSVSVLYLAWYQQKPGQAPRLLMYDASIRATGIPDRFSGSGSGTDFTLTISRLEPEDFAVYYCQQYQRWPLTFGQGTKVEIK | 21 |
| A02_Rd4_6 nM_C19: anti-BCMA antibody (antibody, V domains shown) VH: EVQLLESGGGLVQPGGSLRLSCAASGFTFSSYAMNWVRQAPGKGLEWVSAISDSGGSRWYADSVKGRFTISRDNSKNTLYLQMNSLRAEDTAVYYCARYWPMSDWGQGTLVTVSS VL: EIVLTQSPGTLSLSPGERATLSCRASQSVSVLYLAWYQQKPGQAPRLLMYDASIRATGIPDRFSGSGSGTDFTLTISRLEPEDFAVYYCQQYLAWPLTFGQGTKVEIK | 49 |

Lab note: A02_Rd4_6 nM_C08: anti-BCMA antibody (antibody, V domains shown) VH: EVQLLESGGGLVQPGGSLRLSCAASGFTFSSYAMNWVRQAPGKGLEWVSAILDSGGSTYYADSVKGRFTISRDNSKNTLYLQMNSLRAEDTAVYYCARYWPMSPWGQGTLVTVSS VL: EIVLTQSPGTLSLSPGERATLSCRASQSVSFLYLAWYQQKPGQAPRLLMYDASIRATGIPDRFSGSGSGTDFTLTISRLEPEDFAVYYCQQYGSWPLTFGQGTKVEIK gave Kd of 188

Lab note: A02_Rd4_0.6 nM_C18: anti-BCMA antibody (antibody, V domains shown) VH: EVQLLESGGGLVQPGGSLRLSCAASGFTFSSYAMNWVRQAPGKGLEWVSAVLDSGGSTYYADSVKGRFTISRDNSKNTLYLQMNSLRAEDTAVYYCARYWPMSLWGQGTLVTVSS VL: EIVLTQSPGTLSLSPGERATLSCRASQSVSELYLAWYQQKPGQAPRLLMYDASIRATGIPDRFSGSGSGTDFTLTISRLEPEDFAVYYCQQYFGWPLTFGQGTKVEIK gave Kd of 48

Lab note: A02_Rd4_6 nM_C04: anti-BCMA antibody (antibody, V domains shown) VH: EVQLLESGGGLVQPGGSLRLSCAASGFTFSSYAMNWVRQAPGKGLEWVSAIMSSGGPLYYADSVKGRFTISRDNSKNTLYLQMNSLRAEDTAVYYCARYWPMALWGQGTLVTVSS VL: EIVLTQSPGTLSLSPGERATLSCRASQSVSALYLAWYQQKPGQAPRLLMYDASIRATGIPDRFSGSGSGTDFTLTISRLEPEDFAVYYCQQYQVWPLTFGQGTKVEIK gave Kd of 135
